Cited source for all entries: the MegaScale stability set (Tsuboyama et al. 2023)

B1: 2M8U (parent)
chain: TKAQVIEAFKVFDRDGNGYVTVDYLRKVLNELGDMMPADEIEEMIYEADPQNSGYVQYETFVGMLFL

Variants of: B1
Assay: folding stability dG (cDNA display proteolysis); higher = more stable
Conditions: PBS, room temperature
Parameter measured: folding stability dG (kcal/mol)
Give your result in kcal/mol as a bare value.

These recorded examples may help you get a feel for the data.
Mutation string	Units of measure	folding stability dG
R26G	kcal/mol	1.92
D34T	kcal/mol	3.51
G54E	kcal/mol	2.26
D13W	kcal/mol	2.7
A3T	kcal/mol	3.14
T21D	kcal/mol	3.16
N17C	kcal/mol	2.99
V28A	kcal/mol	2.63
G63V	kcal/mol	3.42
F9K	kcal/mol	2.18

**Query** Entry F61I needs its folding stability dG filled in; supply it.
**Result** 3.6

**Query** Name the recorded folding stability dG of the variant listed here: T60R
**Result** 3.68

**Query** For Y58R , write its folding stability dG.
**Result** 1.77

**Query** Could you please provide reported folding stability dG for T1F ? Thanks!
**Result** 2.91

**Query** Return value of folding stability dG for input M36K , no commentary.
**Result** 3.66

**Query** Quick one: give measured folding stability dG for A3M
**Result** 3.24

**Query** Return folding stability dG for the following variant: G33Q
**Result** 3.37
